- Tested on: A549
- PROTOCOL NOTES: Antiproliferative activity against human A549 cells assessed as cell growth at 10 uM incubated for 72 hrs by MTT assay relative to untreated control
- Format: functional
- COND: A549, 72 h, read-out: Activity
# note: exactly 60% is not below, so it is not fulfilled; use fulfilled for growth at 10 µM strictly under it

{"columns": ["COMPOUND", "CLASS LABEL"],
 "data": [
  ["COc1ccc(C2CC(c3ccc4ccccc4c3)=NN2C2=NC(=O)/C(=C3/C(=O)Nc4c(F)cccc43)S2)cc1 (stereo not drawn)", "not fulfilled"]
]}

Continue with the next compound.
Incoming: hey, is growth at 10 µM for COc1ccc(C2CC(c3cccs3)=NN2C2=NC(=O)/C(=C3/C(=O)Nc4ccc(F)cc43)S2)cc1 (stereo not drawn) lower than 60% or not?
Outgoing: not fulfilled

Sourced from ChEMBL document CHEMBL4339221
